Test system: Mycoplasma pneumoniae strain M129 (ATCC 29342)
Experiment: Time-kill curves
Format: cell-based
Design: unit not given here
Settings: 4×MIC; time 24
readout_kind: M. pneumoniae count in time-kill curve
Give the figure by itself; no unit, no explanation.

Guide cases for M. pneumoniae count in time-kill curve, answers given:
O=C(O)c1cn(C2CC2)c2cc(N3CCNCC3)c(F)cc2c1=O [ciprofloxacin]	5.334
C=CC1(C)CC(OC(=O)CSc2ccc(NC(=O)Cc3ccc([N+](=O)[O-])cc3)cc2)C2(C)C(C)CCC3(CCC(=O)C32)C(C)C1O (centres unmarked) [compound 16C]	6.026
C=C[C@]1(C)C[C@@H](OC(=O)CSCCN(CC)CC)[C@]2(C)[C@H](C)CC[C@]3(CCC(=O)[C@H]32)[C@@H](C)[C@@H]1O [tiamulin, Tiamulin, reference compound]	6.296
CC[C@H]1OC(=O)[C@H](C)[C@@H](O[C@H]2C[C@@](C)(OC)[C@@H](O)[C@H](C)O2)[C@H](C)[C@@H](O[C@@H]2O[C@H](C)C[C@H](N(C)C)[C@H]2O)[C@](C)(O)C[C@@H](C)C(=O)[C@H](C)[C@@H](O)[C@]1(C)O [erythromycin]	6.148

Field: next compound
For Mycoplasma pneumoniae strain M129 (ATCC 29342), provide M. pneumoniae count in time-kill curve of CN(C)[C@@H]1C(O)=C(C(N)=O)C(=O)[C@@]2(O)C(O)=C3C(=O)c4c(O)cccc4[C@@](C)(O)[C@H]3C[C@@H]12 [tetracycline] please. 4.565
